Item-by-item account of cell viability
test system: U2OS; test: cell viability relative to DMSO; higher = less toxic; conditions: 72 h; 10 nM
measured-property: cell viability (%)

1) CC(C)(C)c1cc(C(C)(C)C)c(NC(=O)c2c[nH]c3ccccc3c2=O)cc1O: 103
2) NCCc1cc[nH]n1: 99.5
3) CN1CCN(Cc2ccc(Nc3ncc(Cl)c(Nc4ccccc4S(=O)(=O)N(C)C)n3)cc2)CC1: 98.2
4) CNC(=O)c1cnn(-c2nc(N)c3ncn([C@@H]4O[C@H](CO)[C@@H](O)[C@H]4O)c3n2)c1: 92.1
5) Oc1cccc2cccnc12: 97.5

* * *

tested on: Calu-3; test: cell viability relative to DMSO; higher = less toxic; conditions: 72 h; 10 nM
Item-by-item account of cell viability
measured-property: cell viability (%)

1. Nc1cc(F)ccc1NC(=O)/C=C/c1cnn(C/C=C/c2ccccc2)c1 [RGFP966]: 106
2. O=C(Nc1cc(C(F)(F)F)ccc1O)Nc1cc(C(F)(F)F)ccc1O [NS-1643]: 94.7
3. CC(C)c1ccc(CC(=O)N2CCC[C@@H](c3cccc(OC(C)(C)C(=O)O)c3)C2)cc1: 94.5
4. CCC(C)(CN(C)C)OC(=O)c1ccccc1 (centres undefined) [amyleine]: 95.6
5. CCCCCCCCCCCCCCCCCCCCCC(=O)Nc1ccn([C@@H]2O[C@H](CO)[C@@H](O)[C@@H]2O)c(=O)n1 [enocitabine]: 99
6. Cc1cc(/C=C/c2ccc3cc(N(C)C)ccc3[n+]2C)c(C)n1-c1ccccc1 [pyrvinium-pamoate]: 101
7. Cn1c(=O)n(-c2ccc(C(C)(C)C#N)cc2)c2c3cc(-c4cnc5ccccc5c4)ccc3ncc21 [NVP-BEZ235]: 98.5
8. FC(F)(F)c1cccc(C2=CCN(CCc3ccc4ccccc4c3)CC2)c1 [xaliproden]: 105
9. O=C(O)c1cc(=O)c2ccccc2o1 [chromocarb]: 93.2

* * *

system: Vero E6; assay: cell viability relative to DMSO; higher = less toxic; conditions: 72 h; 10 nM
measured-property: cell viability (%)

1. C#CCN[C@@H]1CCc2ccccc21 [rasagiline]: 104
2. CC(C)(Oc1ccc(Cl)cc1)C(=O)N1CSCC1C(=O)O (stereo unspecified) [timofibrate]: 104
3. CC1=C(C)C(=O)C(C(CCCCCC(=O)O)c2ccccc2)=C(C)C1=O (stereo unspecified) [seratrodast]: 99.5
4. O=[N+]([O-])c1cc(O)c(O)c([N+](=O)[O-])c1 [OR-486]: 99
5. COc1cc(S(C)(=O)=O)ccc1Nc1nc2ccc(-c3ccc(NC(=O)[C@H](C)c4ccc(F)cc4)cc3)cn2n1 [Mps1-IN-5]: 97
6. C[C@@]1(c2cc(-c3cncnc3)c(F)cc2F)CCSC(N)=N1: 103
7. COc1cc(C[C@H](C)[C@H](C)Cc2ccc3c(c2)OCO3)ccc1O [macelignan]: 106
8. CCO[C@@H]1OC(=O)C[C@@H]1NC(=O)[C@@H]1CCCN1C(=O)[C@@H](NC(=O)c1ccc(N)c(Cl)c1)C(C)(C)C [VX-765]: 102
9. C[C@]12C=CC(=O)C=C1CC[C@@H]1[C@@H]2CC[C@]2(C)OC(=O)CC[C@@H]12 [Testolactone]: 91.3
10. CN[C@@H]1[C@@H](O[C@H]2O[C@H](CO)[C@@H](N)[C@H](O)[C@H]2O)O[C@H]2C[C@@H](N)[C@@H](O[C@H]3[C@H](O)[C@@H](O)[C@H](N)C[C@@H]3N)O[C@@H]2[C@@H]1O [apramycin]: 95.3
11. NCCc1cc[nH]n1 [betazole]: 104
12. C[C@H](CCC(=O)NCCS(=O)(=O)O)[C@H]1CC[C@H]2[C@@H]3[C@@H](O)C[C@@H]4C[C@H](O)CC[C@]4(C)[C@H]3CC[C@]12C [ursodeoxycholyltaurine]: 110
13. CCN(CC)C(=S)S [ditiocarb-sodium-trihydrate]: 102
14. CC(=O)N[C@@H](CSSC[C@H](NC(C)=O)C(=O)O)C(=O)O [D-7193]: 106
15. C=C[C@@]1(C)CC(=O)[C@]2(O)[C@@]3(C)[C@@H](O)CCC(C)(C)[C@@H]3[C@H](O)[C@H](OC(C)=O)[C@@]2(C)O1 [colforsin]: 101
16. N#C/C(=C\c1cccn1S(=O)(=O)c1cccc([N+](=O)[O-])c1)S(=O)(=O)c1ccc(F)cc1 [AMZ30]: 97.6
